Experimental System: T1, HLA-A*0201 molecule expressed on human tumor cell line T2 (human)
T1 construct: surface HLA-A2 read with anti-HLA-A2 antibody BB7.2-PE by FACS; also called HLA-A2
Assay Protocol: T2 cell HLA-A2 stabilisation, FACS; peptide at 25 µM
Overview of reported mean relative fluorescence intensity across a group of binders:

Here's what some known entries look like.
Q. Look up mean relative fluorescence intensity for this binder: YTLGEFLYI [BIRC5-B2]
A. 29.6 relative (HIV peptide = 100)

Q. Look up mean relative fluorescence intensity for this binder: RLSSYLVEI [FOXM1-B]
A. 7.6 relative (HIV peptide = 100)

Q. Look up mean relative fluorescence intensity for this binder: LMDLSTTPL [FOXM1-H2]
A. 65.4 relative (HIV peptide = 100)

New cases:
Q. Look up mean relative fluorescence intensity for this binder: RVSSYLVPI [FOXM1-H]
A. 10.5 relative (HIV peptide = 100)

Q. Look up mean relative fluorescence intensity for this binder: LTLGEFLKL [BIRC5-H]
A. 9.8 relative (HIV peptide = 100)

Q. Look up mean relative fluorescence intensity for this binder: LMDLSTTEV [FOXM1-B2]
A. 98.2 relative (HIV peptide = 100)

Q. Look up mean relative fluorescence intensity for this binder: FMLGEFLKL [BIRC5-B1]
A. 61.7 relative (HIV peptide = 100)

Q. Look up mean relative fluorescence intensity for this binder: FLPFGFILV (also called candidate peptide) [IL13RA2-B]
A. 86.5 relative (HIV peptide = 100)

Q. Look up mean relative fluorescence intensity for this binder: GLLGEFLQI [BIRC5-B3]
A. 20.9 relative (HIV peptide = 100)

Q. Look up mean relative fluorescence intensity for this binder: WLPFGFILI [IL13RA2-H]
A. 11.2 relative (HIV peptide = 100)
